All values here come from patent US20090035322A1.

tgt: T1, mutant human CD20 #1 (Y77F) (human, UniProt P11836 1-297)
T1 construct: Human residues replaced by mouse residues; stably expressed on MG87 cells
T1 sequence: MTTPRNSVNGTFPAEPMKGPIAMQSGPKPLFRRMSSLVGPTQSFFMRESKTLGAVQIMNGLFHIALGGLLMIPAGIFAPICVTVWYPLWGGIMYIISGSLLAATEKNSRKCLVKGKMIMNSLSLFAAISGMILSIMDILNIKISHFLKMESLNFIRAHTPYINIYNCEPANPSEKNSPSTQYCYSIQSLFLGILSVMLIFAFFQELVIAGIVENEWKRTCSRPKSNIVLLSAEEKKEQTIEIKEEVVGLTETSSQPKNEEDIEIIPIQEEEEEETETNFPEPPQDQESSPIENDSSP
assayRemarks: FACS, mutant-hCD20 MG87 cells; 100%=best antibody
Provide the reported Percent of Binding to Mutant Human CD20 of each item.

Record 2B7-7 (antibody, V domains shown, Fully human IgG, constant region not specified; also called 2B7-7N) VH: EVQLVESGGGLVQPGRSLRLSCAASGFTFRDYTMHWVRQGPGKGLEWVSGISWNSDYIGYADSVKGRFTISRDNAKNSLYLQMNSLRVEDTALYYCAKLSGTYRDYFYGVDVWGQGTTVTVSS VL: EIVLTQSPATLSLSPGERAALSCRASQSVSNYLAWYQQKPGQAPRLLIYDASNRATGIPARFSGSGSGTDFTLTISSLEPEDFAVYYCQQRSNWPLTFGGGTKVEIR , field Percent of Binding to Mutant Human CD20: 100%

Record 8G6-5 (antibody, V domains shown, Fully human IgG, constant region not specified; also called 8G6-5N) VH: EVQLAESGGDLVQSGRSLRLSCAASGITFHDYAMHWVRQPPGKGLEWVSGISWNSDYIGYADSVKGRFTISRDNAKKSLYLQMNSLRPDDTALYYCVKDFHYGSGSNYGMDVWGQGTTVTVSP VL: EIVMTQSPATLSMSPGERATLSCRASQSVSRNLAWYQQKVGQAPRLLISGASTRATGIPARFSGSGSGTEFTLTINSLQSEDFAVYYCQQSNDWPLTFGQGTRLEIK , field Percent of Binding to Mutant Human CD20: 86%

Record 3H7-6 (antibody, V domains shown, Fully human IgG, constant region not specified; also called 3H7-6N) VH: EVQLVESGGGLVQPGRSLRLSCAASGFTFYDYAMHWVRQAPGKGLEWVSGISWNSGYIGYADSVKGRFTISRDNAKNSLYLQMNSLRAEDTALYYCAKDNSYGKFYYGLDVWGQGTTVTVSS VL: EIVMTQSPATLSVSPGERTTLSCRASQSVSSNLAWYLQKPGQAPRLLIYGASTRATGIPARFSGSGSGTEFILTISSLQSEDFAVYYCQQYNNWPITFGQGTRLEIK , field Percent of Binding to Mutant Human CD20: 28%

Record 6B9-4 (antibody, V domains shown, Fully human IgG, constant region not specified; also called 6B9-4N) VH: EEQLVESGGDLVQPGRSLRLSCAASGFTFHDYTMHWVRQAPGKGLEWVSGISWNSGSIGYADSVKGRFTISRDNAKNSLYLQMNSLRIEDTALYYCAKDPSYGSGSYYYYYGMDVWGQGTTVTVSS VL: EIVLTQSPATLSLSPGERATLSCRASQSVSSYLVWYQQRPGQAPRLLIYEASNRATGIPARFSGSGSGTDFTLTISSLESEDFAVYYCQQRSNWPLTFGGGTKVEIK , field Percent of Binding to Mutant Human CD20: 74%

Record 10E3-17 (antibody, V domains shown, Fully human IgG, constant region not specified; also called 10E3-17N) VH: EVQLVESGGGLVQPGRSLRLSCAASGFTFRDYAMHWVRQVPGKGLEWVSGISWNRGTIGYADSVKGRFTISRDNAKNSLFLQMNSLRADDTALYYCAKDHYYGSGSPYGMDVWGQGTTVTVSS VL: EIVLTQSPATLALSPGERATLSCRASQSVSKYLAWYQQKPGQAPRLLIYDASKRVTGIPGRLSGSGSGTDFTLTISSLEPEDFALYYCQQSSNWPITFGQGTRVEIK , field Percent of Binding to Mutant Human CD20: 61%

Record 2F2 (antibody, V domains shown) VH: EVQLVESGGGLVQPGRSLRLSCAASGFTFNDYAMHWVRQAPGKGLEWVSTISWNSGSIGYADSVKGRFTISRDNAKKSLYLQMNSLRAEDTALYYCAKDIQYGNYYYGMDVWGQGTTVTVSS VL: EIVLTQSPATLSLSPGERATLSCRASQSVSSYLAWYQQKPGQAPRLLIYDASNRATGIPARFSGSGSGTDFTLTISSLEPEDFAVYYCQQRSNWPITFGQGTRLEIK , field Percent of Binding to Mutant Human CD20: 60%

Record 9D4-7 (antibody, V domains shown, Fully human IgG, constant region not specified; also called 9D4-7N) VH: EVQLVESGGGLVQPGRSLRLSCAASGFTFYDYAMHWVRQAPGKGLEWVSGISWNSDTIGYADSVKGRFTISRDNAKNSLYLQMNSLRAEDTALYYCTKDGSYGHFYSGLDVWGQGTTVTVSS VL: EIVLTQSPATLSLSPGERATLSCRASQSVSSYLAWYQQKPGQAPRLLIYVASNRATGIPARFSGSGSGTDFTLTISSLEPDDFAVYYCQQRYYWPLTFGGGTKVEIK , field Percent of Binding to Mutant Human CD20: 67%

Record 2C11-4 (antibody, V domains shown, Fully human IgG, constant region not specified; also called 2C11-4N) VH: EVQLVESGGGLVQPGRSLRLSCAASGFTFRDYAMHWVRQGPGKGLEWVSGISWNTDYIGYADSVKGRFTISRDNAKNSLYLQMNSLRPEDTALYYCAKDARYGRDNYYGMDVWGQGTTVTVSS VL: EIVLTQSPATLSLSPGERATLSCRASQSVSRYLAWYQQKPGQAPRLLIHDASNRATGIPARFSGSGSGTDFTLTITSLEPEDFVVYYCQQRSDWPITFGQGTRLEIK , field Percent of Binding to Mutant Human CD20: 35%
